Tested on: 786-0
Test: NCI tumour cell line growth inhibition, 48 h
The source made the active and inactive calls. No stated cut-off is given here; in the data, active = GI50 up to about 1.1 µM and inactive = higher.

{"Compound": "O=C1NC2OCC(O)C(O1)C2O (configuration not stated)", "GI50": "> 100 µM (inactive)"}
{"Compound": "CCCc1cc(=O)oc2c3c(c4c(c12)OC(C)(C)CC4)O[C@@H](C)[C@H](C)[C@H]3O", "GI50": "5.37 µM (inactive)"}
{"Compound": "CCCCCCCCCCCC[C@@H](O)[C@H]1CC[C@H]([C@H](O)CC[C@H](O)[C@@H]2CC[C@@H](CCCCCCCC3=C[C@H](C)OC3=O)O2)O1", "GI50": "> 50 µM (inactive)"}
{"Compound": "COc1cc(/C=C(\\NC(=O)c2ccccc2)c2nc3cncnc3[nH]2)cc(OC)c1OC", "GI50": "> 100 µM (inactive)"}
{"Compound": "CCOc1ccc(NC(=O)C(=O)CC(=O)c2c(C)[n+]([O-])c3ccccc3[n+]2[O-])cc1", "GI50": "> 100 µM (inactive)"}
{"Compound": "O=C(/C=C/c1ccccc1O)c1ccc([N+](=O)[O-])cc1", "GI50": "17.3 µM (inactive)"}
{"Compound": "C[C@H]1CCC/C=C/[C@@H]2C[C@H](OC3OC(CO)C(O)C(O)C3O)C[C@H]2[C@H](O)/C=C/C(=O)O1 (some centres not stated)", "GI50": "36.7 µM (inactive)"}

----------
System: A498
Experiment: NCI tumour cell line growth inhibition, 48 h
The source made the active and inactive calls. Rule as the data show it: active = GI50 up to about 1.1 µM and inactive = higher.
Outcomes: Yes = active, No = inactive

{"Compound": "Cc1ccc(S(=O)(=O)N/N=C2\\C=C[C@]3(CC2)C(=O)N(C)c2ccccc23)cc1", "Assigned Category": "No"}
{"Compound": "CN(C)Cc1cc(/N=N/c2ccc(Cl)cc2)ccc1OC(=O)c1ccccc1", "Assigned Category": "No"}
{"Compound": "N#C/C(=C\\c1ccc(O)c(O)c1)C(=O)NC1CCC(CC2CCC(NC(=O)/C(C#N)=C/c3ccc(O)c(O)c3)CC2)CC1 (stereo not drawn)", "Assigned Category": "No"}
{"Compound": "O=C1C2c3[nH]c4ccccc4c3C3CCCC3C2C(=O)N1c1ccccc1 (stereo not drawn)", "Assigned Category": "No"}
{"Compound": "CSC(=N)N1N=C2/C(=C/c3ccccc3)CCC[C@H]2[C@H]1c1ccccc1", "Assigned Category": "No"}
{"Compound": "O=C1c2ccccc2C(=O)N1CC1(C(=O)O)NCCS1(=O)=O (stereo not drawn)", "Assigned Category": "No"}
{"Compound": "CCC1=C(C(C)=O)[C@@H]2CCCCC(C(=O)OC)[C@@H]2C1=O (stereo partly drawn)", "Assigned Category": "No"}
{"Compound": "CC(C)Cc1ccc(C(C)/C=C2\\CCC(CN(C)C)C2=O)cc1 (stereo not drawn)", "Assigned Category": "No"}
{"Compound": "C1CN2N3CCCC23C1 (stereo not drawn)", "Assigned Category": "No"}
{"Compound": "Clc1ccc2c(c1)CC1C[N+]3=C(CCCC3)C1=C2 (stereo not drawn)", "Assigned Category": "No"}
{"Compound": "O=P1(O)c2ccccc2CS(=O)(=O)Cc2ccccc21", "Assigned Category": "No"}
{"Compound": "C[C@]12CC[C@H](OC3CCCCO3)CC1=CC[C@@H]1C2CC[C@]2(C)/C(=N/OCCC#N)CCC12 (stereo partly drawn)", "Assigned Category": "No"}
{"Compound": "CCN(CC)CCOc1ccc(N2C(=O)c3cccc4cc([N+](=O)[O-])cc(c34)C2=O)cc1", "Assigned Category": "No"}
{"Compound": "NCCn1ccc(NC(c2ccccc2)(c2ccccc2)c2ccccc2)nc1=O", "Assigned Category": "No"}
{"Compound": "Cc1cc(-c2nc3ccccc3s2)ccc1NC(=O)[C@@H](N)CCCCN", "Assigned Category": "No"}
{"Compound": "C/C(NC(=O)c1ccccc1)=C(/C(=O)c1ccccc1)[C@@H]1OC(C)(C)O[C@@H]1[C@H]1COC(C)(C)O1", "Assigned Category": "No"}
{"Compound": "O=C(O)CCCc1nc2c(n1-c1ccccc1)C(=O)c1ccccc1C2=O", "Assigned Category": "No"}
{"Compound": "C[C@H](CCC1SC1(C)C)C1CCC2(C)C3=C(CC[C@]12C)[C@@]1(C)CC[C@H](O)C(C)(C)C1CC3 (stereo partly drawn)", "Assigned Category": "No"}
{"Compound": "CNc1nc(N)cc(O)n1", "Assigned Category": "No"}
{"Compound": "COC(=O)Cc1c([C@H]2[C@H](CC(=O)OC)c3ccccc3N2C(=O)C(F)(F)F)[nH]c2ccccc12", "Assigned Category": "No"}
{"Compound": "CN1CCN(c2cc3[nH]c(-c4ccc(Cl)cc4)nc3cc2F)CC1", "Assigned Category": "No"}
{"Compound": "O=C1C=Cc2noc3cccc1c23", "Assigned Category": "No"}
{"Compound": "COC(=O)c1cc2c(s1)C(=O)c1ccccc1-2", "Assigned Category": "No"}
{"Compound": "Cc1cnc2nc(-c3ccc4ccccc4c3)cc(O)c2c1", "Assigned Category": "Yes"}
{"Compound": "S=C(Cc1ccc2c(c1)Sc1ccccc1O2)N1CCOCC1", "Assigned Category": "No"}
{"Compound": "CC[C@H]1C=CCC[C@@]2(C[C@@H]3CC[C@@H]4[C@H](C(=O)OCCCCCCCCCCCCCCCC(=O)N(CCCN)CCCCN)[C@]5(CCC[C@@H](C)O5)NC(=[N+]34)N2)O1", "Assigned Category": "No"}
{"Compound": "CC(C)=Cc1cc(C(=O)Nc2ccc(Cl)c(Cl)c2)nc(N)n1", "Assigned Category": "No"}
{"Compound": "Nc1nc(Cl)cc(OCC2(CO)CCCCC2)n1", "Assigned Category": "No"}
{"Compound": "S=P1(N2CCCCC2)Oc2ccc3ccccc3c2-c2c(ccc3ccccc23)O1", "Assigned Category": "No"}
{"Compound": "CCCCCCCCCCC(O)CCCCCCC(=O)O (stereo not drawn)", "Assigned Category": "No"}
{"Compound": "CN(C)/N=C(/c1nc2ccc(Cl)cc2nc1O)C(O)c1ccc(C(O)/C(=N\\N(C)C)c2nc3ccc(Cl)cc3nc2O)cc1 (stereo not drawn)", "Assigned Category": "No"}
{"Compound": "O=C1N(C2CCCCC2)CC12CCCCC2", "Assigned Category": "No"}
{"Compound": "CN(C)c1ccc(C2CC(=O)CC(c3ccc(N(C)C)cc3)C23C(=O)NC(=S)NC3=O)cc1 (stereo not drawn)", "Assigned Category": "No"}
{"Compound": "Fc1ccc(NC(=S)SCc2ccc3c(c2)OCO3)cc1F", "Assigned Category": "No"}
{"Compound": "Cc1nc2ccc(S(=O)(=O)Nc3nccs3)cc2c(=O)n1NS(=O)(=O)c1nccs1", "Assigned Category": "No"}
{"Compound": "CN(C)Cc1cc(Cl)c(O)c(CN(C)C)c1", "Assigned Category": "No"}
{"Compound": "CCOC(=O)c1cccnc1C(OC(C)=O)OC(C)=O", "Assigned Category": "No"}
{"Compound": "O=C1NC2(CCCCC2)C2CCCCC(O)C12 (stereo not drawn)", "Assigned Category": "No"}
{"Compound": "CSc1c(C#N)c(O)n(-c2ccc(C)cc2)c(=O)c1C(C)=O", "Assigned Category": "No"}
{"Compound": "O=c1[nH]nc(-c2ccccc2)n1O", "Assigned Category": "No"}
{"Compound": "CCN(CC)Cc1ccc(C(=S)Nc2ccc(C)cc2)s1", "Assigned Category": "No"}
{"Compound": "CC(C)Oc1cccc(N2C(n3ccnc3)=Nc3ccncc3S2(=O)=O)c1", "Assigned Category": "No"}
{"Compound": "O=C(N/N=C1\\C(=O)Nc2ccc(Br)cc21)/C(O)=C/C(=O)c1ccc(Cl)cc1", "Assigned Category": "No"}
